All figures here come from patent US20240247080A1.

# SUBJECT OF TEST: T1, human GIP receptor (human, UniProt P48546 22-466)
# T1 sequence (looked up): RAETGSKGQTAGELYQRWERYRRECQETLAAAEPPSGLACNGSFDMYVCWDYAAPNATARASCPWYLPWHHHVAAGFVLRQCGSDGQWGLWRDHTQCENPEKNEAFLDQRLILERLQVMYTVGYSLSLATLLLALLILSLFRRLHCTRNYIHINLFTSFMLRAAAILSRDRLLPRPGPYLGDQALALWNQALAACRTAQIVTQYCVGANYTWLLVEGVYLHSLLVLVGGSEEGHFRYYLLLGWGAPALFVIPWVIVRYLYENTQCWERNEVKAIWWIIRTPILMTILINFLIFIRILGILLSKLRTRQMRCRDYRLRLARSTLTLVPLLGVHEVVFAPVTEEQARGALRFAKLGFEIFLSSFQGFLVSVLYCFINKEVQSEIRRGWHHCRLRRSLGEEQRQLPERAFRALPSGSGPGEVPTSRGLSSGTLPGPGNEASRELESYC
# ASSAY PROTOCOL: cell-based or functional assay
Starred links: 1 amine or outer side, 2 acyl side, 3 side chain; linkers in the order of their positions; H or OH if unused. Non-standard residues stand in square brackets, D forms with d. Groups on a side chain read outwards from the residue. No end group written: not given here. *: point of attachment. C20 diacid = O=C(O)CCCCCCCCCCCCCCCCCCC(=O)*; C18 diacid = O=C(O)CCCCCCCCCCCCCCCCC(=O)*; γGlu = O=C(O)[C@H](CCC(=O)[*:2])N[*:1]; εLys = N[C@@H](CCCCN[*:1])C(=O)[*:2]; AEEA = NCCOCCOCC(=O)O; Aib = CC(C)(N)C(=O)O
Reported EC50, CreLuc assay, 100% hP values for a set of binders
QUANTITY NAME: EC50, CreLuc assay, 100% hP (nM)

BINDER	READOUT UNIT	ENDPOINT RESULT
YXEGTFTSDYSIXLEKQAQXAFVEWLIKGGPSSGASLRHYYNRXTRQRY (Aib at 2, 13, 20, 44; K28 side chain: C20DA-gGlu-gGlu-gGlu-gGlu-gGlu-gGlu-eLys; C-terminal NH2) [Compound 68]	nM	2.05
YXEGTFTSDYSIXLEKQAQXAFVEWLIKGGPSSGASXRHYYNWLTXQRY (Aib at 2, 13, 20, 37; hArg 46; DTyr 49; K28 side chain: C20DA-gGlu-gGlu-gGlu-gGlu-gGlu-gGlu-eLys; C-terminal NH2) [Compound 26]	nM	0.7
YXEGTFTSDYSIXLEKQAQXAFVQWLIKGGPSEYVSLRHYYNWLTRQRY (Aib at 2, 13, 20; K28 side chain: C20DA-gGlu-gGlu-gGlu-gGlu-gGlu-gGlu-eLys; C-terminal NH2) [Compound 78]	nM	6.64
YXEGTFTSDYSIXLEKQAQXEFVQWLIKGGPSSGASLRHYYNWLTRQRY (Aib at 2, 13, 20; K28 side chain: C20DA-gGlu-gGlu-gGlu-gGlu-gGlu-OEG-OEG; C-terminal NH2) [Compound 36]	nM	1.57
Y[Aib]EGTFTSDYSI[Aib]LEKQAQ[Aib]AFVQWLIK([AEEA-AEEA-γGlu-γGlu-γGlu-γGlu-C18 diacid])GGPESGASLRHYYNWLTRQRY-NH2 (also: TFA salt) [Compound 58]	nM	0.31
YXEGTFTSDYSIXLEKQAQXAFVQWLIKGGPESGASLRHYYNWLTRQRY (Aib at 2, 13, 20; K28 side chain: C20DA-gGlu-gGlu-gGlu-gGlu-gGlu; C-terminal NH2) [Compound 29]	nM	4.08
Y[Aib]EGTFTSDYSI[Aib]LEKQAQ[Aib]AFVQWLIK([εLys-γGlu-γGlu-γGlu-γGlu-γGlu-C20 diacid])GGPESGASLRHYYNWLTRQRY-NH2 (also: TFA salt) [Compound 61]	nM	0.56
